This collection of values is drawn from patent US20240408222A1.

# Test system: 786-O
# procedure_summary: Cytotoxicity in vitro (MTT) in presence/absence of elastase
# Type: cell-based, human
# experimental_context: with (+) 10 nM neutrophil elastase, 72 h
# Protocol: Cultivation of cells was performed according to standard procedures with the media recommended by the provider. The cells, in a total volume of 100 μL, were seeded in a 96-well plate with a white bottom (#3610). After a 24 h incubation period at 37° C. and […], the medium was exchanged by adding 90 μL fresh medium. […] The proliferation was detected using the MTT assay (ATCC). […] The formed dye was detected at 570 nm. […]
pIC50: −log10 of the molar value.
endpoint_name: pIC50

compound="CCCNC(=O)Nc1cccc(S(=O)(=O)Nc2cccc([C@@H](CC(=O)O)NC(=O)Nc3ccc(NC(=O)NCCN(C)CCN(C)CCN(C)CC(=O)N[C@@H](CC(N)=O)C(=O)N4CCC[C@H]4C(=O)N[C@H](C(=O)N=[S@@](C)(=O)Cc4cc5cc(c4)OCCCCCNc4cc(ccc4F)-c4nc(ncc4F)N5)C(C)C)cc3)c2)c1 (relative stereo)" endpoint_name=pIC50 reading="≥ 9.00"
compound=CCCNC(=O)Nc1cccc(S(=O)(=O)Nc2cccc([C@@H](CC(=O)[O-])NC(=O)Nc3ccc(NC(=O)NCCOCCOCCOCCC(=O)N[C@@H](CC(=O)[O-])C(=O)N4CCC[C@H]4C(=O)N[C@H](C(=O)N=[S@@](C)(=O)Cc4cc5cc(c4)OCCCCOc4cc(F)ccc4-c4nc(ncc4F)N5)C(C)C)cc3)c2)c1.[Na+].[Na+] endpoint_name=pIC50 reading="≥ 9.00"

Please look at the following compound next.
(Q) Quick one: pIC50 for CCCNC(=O)Nc1cccc(S(=O)(=O)Nc2cccc([C@@H](CC(=O)O)NC(=O)Nc3ccc(NC(=O)NCCOCCOCCOCCC(=O)N[C@@H](CC(=O)O)C(=O)N4CCC[C@H]4C(=O)N[C@H](C(=O)N=S(C)(=O)Cc4ccnc(Nc5cc(-c6ccc(F)cc6OC)c(F)cn5)c4)C(C)C)cc3)c2)c1 (relative stereo) ?
(A) 7.00 to 7.96

---

# System: 786-O
# procedure_summary: Cytotoxicity assay (Version 2, automated, AC50) with/without neutrophil elastase
# Type: cell-based, human
# experimental_context: without (−) neutrophil elastase, Version 2, activity concentration at −50%
endpoint_name: AC50

compound=CCCNC(=O)Nc1cccc(S(=O)(=O)Nc2cccc([C@H](CC(=O)O)NC(=O)Nc3ccc(NC(=O)NCCOCCOCCOCCC(=O)N[C@@H](CC(=O)O)C(=O)N4CCC[C@H]4C(=O)N[C@H](C(=O)N=[S@@](C)(=O)Cc4cc5cc(c4)OCCCCOc4cc(F)ccc4-c4nc(ncc4F)N5)C(C)C)cc3)c2)c1 reading="> 1 µM"

(Q) Quick one: AC50 for CCCNC(=O)Nc1cccc(S(=O)(=O)Nc2cccc([C@@H](CC(=O)O)NC(=O)Nc3ccc(NC(=O)NCCN(C)CCN(C)CCN(C)CC(=O)N[C@@H](CC(N)=O)C(=O)N4CCC[C@H]4C(=O)N[C@H](C(=O)N=[S@](C)(=O)Cc4cc5cc(c4)OCCCCCNc4cc(ccc4F)-c4nc(ncc4F)N5)C(C)C)cc3)c2)c1 (relative stereo) ?
(A) 0.1 to 1 µM

(Q) Quick one: AC50 for CCCNC(=O)Nc1cccc(S(=O)(=O)Nc2cccc([C@@H](CC(=O)O)NC(=O)Nc3ccc(NC(=O)N(C)CCN(C)CCN(C)CC(=O)N[C@@H](CC(N)=O)C(=O)N4CCC[C@H]4C(=O)N[C@H](C(=O)N=[S@@](C)(=O)Cc4ccnc(Nc5cc(-c6ccc(F)cc6OC)c(F)cn5)c4)C(C)C)cc3)c2)c1 ?
(A) > 1 µM
